meta.source: paper PMC12251151

So I've got a bunch of compounds here, and I need their pH range in which PL inhibitory activity changed little (acid-base stability) values.
# test_target: pancreatic lipase (PL) (Sus scrofa)
# Construct: lipase (porcine pancreas); purchased Shanghai Yuanye Co., Ltd., Shanghai, China; host or cells: porcine pancreas
# Sequence (P00591 whole entry): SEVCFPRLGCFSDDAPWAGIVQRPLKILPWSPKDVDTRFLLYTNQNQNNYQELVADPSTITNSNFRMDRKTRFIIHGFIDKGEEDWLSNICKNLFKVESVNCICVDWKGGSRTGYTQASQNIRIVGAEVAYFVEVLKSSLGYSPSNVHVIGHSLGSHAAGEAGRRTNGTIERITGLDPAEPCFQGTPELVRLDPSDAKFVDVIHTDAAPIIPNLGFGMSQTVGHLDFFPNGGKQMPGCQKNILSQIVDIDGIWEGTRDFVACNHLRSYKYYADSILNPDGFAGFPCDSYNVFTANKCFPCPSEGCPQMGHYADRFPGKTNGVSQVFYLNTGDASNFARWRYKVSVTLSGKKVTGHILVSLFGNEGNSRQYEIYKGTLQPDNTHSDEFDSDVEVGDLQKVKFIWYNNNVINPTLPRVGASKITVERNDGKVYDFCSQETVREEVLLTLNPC
# measurement_protocol: In vitro stability (temperature and acid-base pre-treatment, then PL inhibition)
# Format: physicochemical, porcine
# condition_description: 20 min treatment with buffers pH 2.0-10.0

Which pH range in which PL inhibitory activity changed little (acid-base stability) reading was recorded for the compound Oc1ccc(-c2c3nc(c(-c4ccc(O)cc4)c4ccc([nH]4)c(-c4ccc(O)cc4)c4nc(c(-c5ccc(O)cc5)c5ccc2[nH]5)C=C4)C=C3)cc1 ? 2.0~10.0 pH

Then O=C(O)c1ccc(-c2c3nc(c(-c4ccc(C(=O)O)cc4)c4ccc([nH]4)c(-c4ccc(C(=O)O)cc4)c4nc(c(-c5ccc(C(=O)O)cc5)c5ccc2[nH]5)C=C4)C=C3)cc1 ? 2.0~10.0 pH

Another: O=C([O-])c1ccc(C2=C3C=CC(=N3)C(c3ccc(C(=O)[O-])cc3)=C3C=CC(=N3)C(=c3ccc(=C([O-])[O-])cc3)c3ccc([n-]3)C(c3ccc(C(=O)[O-])cc3)=C3C=CC2=N3)cc1.[67Cu+2].[H+].[H+].[H+].[H+] 2.0~10.0 pH

Same question for Nc1ccc(-c2c3nc(c(-c4ccc(N)cc4)c4ccc([nH]4)c(-c4ccc(N)cc4)c4nc(c(-c5ccc(N)cc5)c5ccc2[nH]5)C=C4)C=C3)cc1 please. 2.0~9.0 pH
